Listed below: log10 IC50 values for each entry.
# MEASUREMENT TARGET: Serotonin 2 (5-HT2) receptor (Rattus norvegicus, UniProt P30994+P08909+P14842)
# ASSAY OVERVIEW: In vitro binding affinity was measured on serotonergic 5-hydroxytryptamine 2 receptor by displacement of [3H]- ketanserin
# Assay type: protein assay
ASSAY METRIC: log10 IC50 (log10 of the value in nM)

COMPOUND: O=C1C2CCCCC2C=NN1CCCCN1CCN(c2nsc3ccccc23)CC1 (stereo in doubt; 52)
log10 IC50: -0.12
--
COMPOUND: CCOC(=O)n1c2ccccc2c(=O)n1CCCCN1CCN(c2nsc3ccccc23)CC1
log10 IC50: 0.90
--
COMPOUND: O=C1c2ccccc2C(=O)N1CCCCN1CCN(c2nsc3ccccc23)CC1
log10 IC50: 0.88
--
COMPOUND: O=c1c2ccccc2[nH]n1CCCCN1CCN(c2nsc3ccccc23)CC1
log10 IC50: 2.18
--
COMPOUND: O=C1c2ccccc2CN1CCCCN1CCN(c2nsc3ccccc23)CC1
log10 IC50: 0.71
--
COMPOUND: O=C1C2CCCCC2C=NN1CCCCN1CCN(c2nsc3ccccc23)CC1 (stereo in doubt; 53)
log10 IC50: -0.42
--
COMPOUND: O=c1[nH]n(CCCCN2CCN(c3nsc4ccccc34)CC2)c(=O)c2ccccc12
log10 IC50: 1.88
--
COMPOUND: O=C1c2ccccc2CCCN1CCCCN1CCN(c2nsc3ccccc23)CC1
log10 IC50: 0.62
--
COMPOUND: Cc1nn(CCCCN2CCN(c3nsc4ccccc34)CC2)c(=O)c2ccccc12
log10 IC50: -0.08
--
COMPOUND: O=C1Cc2ccccc2C(=O)N1CCCCN1CCN(c2nsc3ccccc23)CC1
log10 IC50: 0.67
--
COMPOUND: O=c1c2ccccc2sn1CCCCN1CCN(c2nsc3ccccc23)CC1
log10 IC50: 2.15
--
COMPOUND: O=C1c2ccccc2CCN1CCCCN1CCN(c2nsc3ccccc23)CC1
log10 IC50: 0.28
--
COMPOUND: O=c1c2ccccc2cnn1CCCCN1CCN(c2nsc3ccccc23)CC1
log10 IC50: 0.26
--
COMPOUND: O=c1c2ccccc2nnn1CCCCN1CCN(c2nsc3ccccc23)CC1
log10 IC50: 0.46
--
COMPOUND: O=C1c2ccccc2S(=O)(=O)N1CCCCN1CCN(c2nsc3ccccc23)CC1
log10 IC50: 0.04
--
COMPOUND: O=c1c2ccccc2ncn1CCCCN1CCN(c2nsc3ccccc23)CC1
log10 IC50: 0.36
